Listing of recorded melting point by entry.
MEASURED_PROPERTY: melting point

In [3]: df
Out[3]:
                                   molecule  measured_property  observed_measurement
0  C[C@]12CCC3C(CC=C4C[C@@H](O)CC[C@@]43C)C1CCC2C1=CC(c2ccccc2)NC(=N)N1 (stereo partly drawn)      melting point                128 °C
1  C[C@]12CCC3C(CC=C4C[C@@H](O)CC[C@@]43C)C1CCC2C1=CC(c2ccccc2)NC(=O)N1 (stereo partly drawn)      melting point         108 to 110 °C
2  C[C@]12CCC3C(CC=C4C[C@@H](O)CC[C@@]43C)C1CCC2C1=CC(c2ccccc2)NC(=S)N1 (stereo partly drawn)      melting point         208 to 210 °C
3  CC1=C2C(CC3C4CC=C5C[C@@H](O)CC[C@]5(C)C4CC[C@]23C)NC(=O)N1 (stereo partly drawn)      melting point         163 to 164 °C
4  CC1=C2C(CC3C4CC=C5C[C@@H](O)CC[C@]5(C)C4CC[C@]23C)NC(=S)N1 (stereo partly drawn)      melting point         208 to 210 °C
5  CC1=C2C(CC3C4CC=C5C[C@@H](O)CC[C@]5(C)C4CC[C@]23C)NC(=N)N1 (stereo partly drawn)      melting point         108 to 110 °C
